# procedure_summary: BSK_SAg_Proliferation: Cell Proliferation Assessment in the BioMAP Diversity Plus: SAg Assay (AID 2283095);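 note: relative cell number as total protein by SRB absorbance in sub-confluent culture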
# settings: primary human HUVEC with PBMC
Activity calls are given as the source filed them. Rule for the calls: active = hit-call score of the fitted dose curve at least 0.9, where 1 is the maximum; inactive = score below 0.9.
Hello, when you answer, please use one of the following outcomes: 1 (active), 0 (inactive)

[in] Could you please tell me the result logged for CCCCC(CC)COC(=O)c1ccccc1O (configuration not stated) in this assay?
[out] 1

[in] State the result this test recorded for "C=CCOc1c(Br)cc(Br)cc1Br" .
[out] 0

[in] Recorded test call requested for "CCCCCCCCc1ccc(Nc2ccc(CCCCCCCC)cc2)cc1"
[out] 0

[in] What did this assay record as the result for "C=C[Si](OC(C)=O)(OC(C)=O)OC(C)=O" ?
[out] 0

[in] Dear colleague, could you share the recorded outcome for "C=CC=CC=CCCCCC" when you have a moment?
[out] 1

[in] So what was the verdict on "c1ccc(-c2ccccn2)nc1" in this test?
[out] 0

[in] Please share the test call associated with C#CC1(O)CC[C@H]2[C@@H]3CCC4=CCCC[C@@H]4[C@H]3CC[C@@]21C (some centres not stated) .
[out] 1
